Reference source for all entries: patent US4582821A

System: A-431 plasma membrane extracts (EGF-mediated protein phosphorylation)
Assay: Protein phosphorylation in solubilized A-431 plasma membrane extracts, with or without EGF
Format: biochemical, human
Details: EGF added; 477 nmol/mg protein
Some compounds, each annotated with its measured % inhibition, EGF Added.
The figure you give is taken to be in %; do not add the unit.

Below, each entry is followed by its recorded % inhibition, EGF Added result.
Task item: Recorded % inhibition, EGF Added of CC(C)C[C@H](NC(=O)OC(C)(C)C)C(=O)CCl [Boc-LeuCH2 Cl] , please.
Reply: 28

Task item: Recorded % inhibition, EGF Added of CC(C)CC(NC(=O)OC(C)(C)C)C(=O)CBr (centres unmarked) [Boc-LeuCH2 Br] , please.
Reply: 72

Task item: Recorded % inhibition, EGF Added of CC(C)[C@H](NC(=O)OC(C)(C)C)C(=O)CCl [Boc-ValCH2 Cl] , please.
Reply: 25

Task item: Recorded % inhibition, EGF Added of CC(C)(C)OC(=O)N[C@@H](Cc1ccc(O)cc1)C(=O)CCl [Boc-TyrCH2 Cl] , please.
Reply: 45

Attention now shifts to the item below.
Task item: Recorded % inhibition, EGF Added of CC(C)(C)OC(=O)N[C@@H](Cc1ccc(O)cc1)C(=O)CBr [Boc-TyrCH2 Br] , please.
Reply: 78
